# ASSAY_TARGET: Human HER3, endogenous, on human cancer cell lines (SK-Br-3, MCF7, BT-474) (human, UniProt P21860 20-1342)
# Sequence (P21860 20-1342): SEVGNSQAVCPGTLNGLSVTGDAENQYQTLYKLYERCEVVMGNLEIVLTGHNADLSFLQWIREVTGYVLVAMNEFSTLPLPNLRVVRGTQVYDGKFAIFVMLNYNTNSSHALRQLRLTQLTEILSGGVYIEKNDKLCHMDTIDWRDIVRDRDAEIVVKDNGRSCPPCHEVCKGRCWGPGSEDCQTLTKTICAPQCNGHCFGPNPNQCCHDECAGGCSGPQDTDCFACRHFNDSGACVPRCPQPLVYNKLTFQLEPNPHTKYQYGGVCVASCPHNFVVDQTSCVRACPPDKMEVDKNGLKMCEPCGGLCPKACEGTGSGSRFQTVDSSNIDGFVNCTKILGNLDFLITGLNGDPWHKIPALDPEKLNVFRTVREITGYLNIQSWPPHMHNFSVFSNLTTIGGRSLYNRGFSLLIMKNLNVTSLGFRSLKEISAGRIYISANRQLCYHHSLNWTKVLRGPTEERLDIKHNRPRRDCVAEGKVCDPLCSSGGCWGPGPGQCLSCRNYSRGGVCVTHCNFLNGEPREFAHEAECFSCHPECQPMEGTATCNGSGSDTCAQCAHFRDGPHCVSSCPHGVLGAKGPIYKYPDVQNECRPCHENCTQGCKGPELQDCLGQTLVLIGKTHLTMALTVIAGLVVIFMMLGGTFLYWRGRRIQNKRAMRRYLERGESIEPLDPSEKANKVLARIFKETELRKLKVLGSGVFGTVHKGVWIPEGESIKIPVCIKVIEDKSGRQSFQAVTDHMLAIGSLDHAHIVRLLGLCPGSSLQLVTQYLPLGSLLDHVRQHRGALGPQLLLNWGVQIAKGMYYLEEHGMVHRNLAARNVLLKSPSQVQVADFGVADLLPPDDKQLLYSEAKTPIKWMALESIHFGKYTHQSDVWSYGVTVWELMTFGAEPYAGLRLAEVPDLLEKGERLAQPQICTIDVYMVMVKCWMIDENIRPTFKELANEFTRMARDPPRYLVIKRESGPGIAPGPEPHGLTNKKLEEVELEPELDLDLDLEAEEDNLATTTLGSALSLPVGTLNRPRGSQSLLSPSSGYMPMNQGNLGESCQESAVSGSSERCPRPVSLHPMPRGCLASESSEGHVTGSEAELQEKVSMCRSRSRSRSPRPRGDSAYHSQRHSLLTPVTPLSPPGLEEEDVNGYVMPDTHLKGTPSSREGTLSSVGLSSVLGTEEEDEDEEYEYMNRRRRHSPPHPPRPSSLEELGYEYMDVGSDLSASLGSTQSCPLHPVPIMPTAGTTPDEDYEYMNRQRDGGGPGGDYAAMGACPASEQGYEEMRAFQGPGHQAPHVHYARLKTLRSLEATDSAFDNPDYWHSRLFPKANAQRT
# ASSAY_NAME: cell-based or functional assay
Each entry below carries its recorded BT-474 proliferation IC50.
RECORDED_ENDPOINT: BT-474 proliferation IC50 (nM)

[[record]]
binder = "MOR13767 (antibody, human IgG1, kappa, V domains shown, tested as IgG) VH: QVQLVQSGAEVKKPGESLKISCKGSGYSFTTSWVAWVRQMPGKGLEWMGIIYPGQSDTIYSPSFQGQVTISADKSISTAYLQWSSLKASDTAMYYCARVHIIQPPSAWSYNAMDVWGQGTLVTVSS VL: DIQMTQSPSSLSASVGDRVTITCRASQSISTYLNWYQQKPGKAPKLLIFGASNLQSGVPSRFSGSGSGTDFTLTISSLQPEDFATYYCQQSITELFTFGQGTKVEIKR"
measured_value = 0.924

[[record]]
binder = "MOR13871 (antibody, human IgG1, kappa, V domains shown, tested as IgG) VH: QVQLVQSGAEVKKPGESLKISCKGSGYSFSNYWIAWVRQMPGKGLEWMGIIYPGSSDTIYSPSFQGQVTISADKSISTAYLQWSSLKASDTAMYYCARVHIIQPPSAWSYNAMDVWGQGTLVTVSS VL: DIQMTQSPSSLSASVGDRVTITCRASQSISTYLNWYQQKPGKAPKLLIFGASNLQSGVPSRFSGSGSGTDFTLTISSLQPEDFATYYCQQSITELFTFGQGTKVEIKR"
measured_value = 1

[[record]]
binder = "MOR13752 (antibody, human IgG1, kappa, V domains shown, tested as IgG) VH: QVQLVQSGAEVKKPGESLKISCKGSGYSFTNYWVAWVRQMPGKGLEWMGIIYPGGSDTIYSPSFQGQVTISADKSISTAYLQWSSLKASDTAMYYCARVHIIQPPSAWSYNAMDVWGQGTLVTVSS VL: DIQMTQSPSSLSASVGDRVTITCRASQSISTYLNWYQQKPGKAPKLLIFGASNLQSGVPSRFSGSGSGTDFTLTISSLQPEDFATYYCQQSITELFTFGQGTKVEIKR"
measured_value = 42.8

[[record]]
binder = "MOR13750 (antibody, human IgG1, kappa, V domains shown, tested as IgG) VH: QVQLVQSGAEVKKPGESLKISCKGSGYSFTSSWVAWVRQMPGKGLEWMGIIYPGGSDTIYSPSFQGQVTISADKSISTAYLQWSSLKASDTAMYYCARVHIIQPPSAWSYNAMDVWGQGTLVTVSS VL: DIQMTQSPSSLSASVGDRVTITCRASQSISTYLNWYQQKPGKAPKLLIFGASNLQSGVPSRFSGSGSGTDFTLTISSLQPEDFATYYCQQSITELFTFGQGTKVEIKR"
measured_value = 13.8

[[record]]
binder = "MOR13759 (antibody, human IgG1, kappa, V domains shown, tested as IgG) VH: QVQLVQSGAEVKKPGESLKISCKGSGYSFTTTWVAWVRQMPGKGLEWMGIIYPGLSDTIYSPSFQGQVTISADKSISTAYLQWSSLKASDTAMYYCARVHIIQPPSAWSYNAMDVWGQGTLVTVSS VL: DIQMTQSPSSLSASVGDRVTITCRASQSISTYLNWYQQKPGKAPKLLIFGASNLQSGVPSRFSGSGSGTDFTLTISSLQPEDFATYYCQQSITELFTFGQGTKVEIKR"
measured_value = 6.26

[[record]]
binder = "MOR13868 (antibody, human IgG1, kappa, V domains shown, tested as IgG) VH: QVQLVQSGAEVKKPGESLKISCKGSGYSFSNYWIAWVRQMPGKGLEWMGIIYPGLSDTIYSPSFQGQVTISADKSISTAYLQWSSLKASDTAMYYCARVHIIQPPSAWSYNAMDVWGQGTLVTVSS VL: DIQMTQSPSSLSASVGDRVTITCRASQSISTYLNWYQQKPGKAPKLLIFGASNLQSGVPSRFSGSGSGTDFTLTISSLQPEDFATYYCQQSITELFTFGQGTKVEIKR"
measured_value = 1.72

[[record]]
binder = "MOR13765 (antibody, human IgG1, kappa, V domains shown, tested as IgG) VH: QVQLVQSGAEVKKPGESLKISCKGSGYSFTGSWVAWVRQMPGKGLEWMGIIYPGTSDTIYSPSFQGQVTISADKSISTAYLQWSSLKASDTAMYYCARVHIIQPPSAWSYNAMDVWGQGTLVTVSS VL: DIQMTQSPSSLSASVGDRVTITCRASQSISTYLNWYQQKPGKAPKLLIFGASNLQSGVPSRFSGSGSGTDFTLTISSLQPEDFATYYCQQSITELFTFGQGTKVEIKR"
measured_value = 3.1


Entry source: patent US20130273029A1
